target: human full-length MKNK1 (Homo sapiens, UniProt Q9BUB5, T344D); test: MKNK1 kinase high ATP assay (TR-FRET); conditions: 2 mM ATP, 15 min preincubation with MKNK1, TR-FRET
pIC50: −log10 of the molar value.
Quantity Name: pIC50

1. c1cc2oc(-c3cnc4ccc(OC[C@H]5CNCCO5)nn34)cc2cn1    7.14
2. c1cnc2cc(-c3cnc4ccc(OC[C@H]5CNCCO5)nn34)oc2c1    7.07
3. c1cc2oc(-c3cnc4ccc(OCC[C@@H]5CCCN5)nn34)cc2cn1    6.88
4. COc1nccc2oc(-c3cnc4ccc(OC[C@@H]5CCCCN5)nn34)cc12    7.32
5. CN[C@H](C)COc1ccc2ncc(-c3cc4c(OC)nccc4o3)n2n1 (stereo in doubt)    7.49
6. COc1nccc2oc(-c3cnc4ccc(OC[C@H]5CNCCO5)nn34)cc12    7.96
7. COc1nccc2oc(-c3cnc4ccc(O[C@@H](CNC5CC5)c5ccc(F)cc5)nn34)cc12 (stereo in doubt)    6.41
8. COc1nccc2oc(-c3cnc4ccc(OCC5CNC5)nn34)cc12    7.51
